Test system: Toxoplasma gondii
Assay: Antiparasitic activity against Toxoplasma gondii RH infected in human HFF cells
Type: functional, organism-based
MEASURED_METRIC: IC50 (µM)
Write it as a number; the unit µM goes unstated.

Query: Dear colleague, I am looking for the recorded IC50 of the following compound: "COC(=O)Cn1c(C(=O)NS(=O)(=O)C2=Cc3ccccc3C2)cc2cc(OC)ccc21"
Response: 0.13

Query: Same again, this time with "CC1=C(c2nccs2)O[C@@H]2O[C@@]3(C)CC[C@H]4[C@H](C)CC[C@@H]1[C@@]24OO3"
Response: 1

Query: Same again, this time with "O=C1C2=C(C(=O)c3ccccc31)[C@H]1Oc3ccc(Br)cc3[C@H]1CO2"
Response: 2.6

Query: Same again, this time with "CC(C)CCCc1ccc2c(c1)C(=O)C=C(N1CCCC1)C2=O"
Response: 0.32

---

Exercise: state measured IC50 for each of the molecules provided.
Target: Bifunctional dihydrofolate reductase-thymidylate synthase (Toxoplasma gondii, UniProt Q07422)
Sequence (Q07422 whole entry): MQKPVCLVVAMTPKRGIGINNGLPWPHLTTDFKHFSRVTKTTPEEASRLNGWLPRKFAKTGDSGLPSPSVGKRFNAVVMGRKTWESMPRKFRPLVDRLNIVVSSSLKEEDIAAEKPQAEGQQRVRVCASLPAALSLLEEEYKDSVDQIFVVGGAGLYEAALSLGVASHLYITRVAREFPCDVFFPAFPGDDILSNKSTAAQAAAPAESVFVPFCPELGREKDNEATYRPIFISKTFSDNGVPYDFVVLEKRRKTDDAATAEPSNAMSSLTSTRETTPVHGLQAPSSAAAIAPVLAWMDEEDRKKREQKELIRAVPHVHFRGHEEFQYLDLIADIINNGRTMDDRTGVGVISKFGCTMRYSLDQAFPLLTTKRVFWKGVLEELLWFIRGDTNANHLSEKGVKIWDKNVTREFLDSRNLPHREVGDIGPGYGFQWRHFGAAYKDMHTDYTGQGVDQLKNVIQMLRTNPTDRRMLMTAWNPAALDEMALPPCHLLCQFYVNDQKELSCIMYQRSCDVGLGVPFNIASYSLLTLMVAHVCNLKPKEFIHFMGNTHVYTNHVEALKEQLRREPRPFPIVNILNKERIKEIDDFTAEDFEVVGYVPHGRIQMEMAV
Assay: Inhibition of Toxoplasma gondii thymidylate synthase
Please provide the amount together with its unit, number first.

Query: Dear colleague, I am looking for the recorded IC50 of the following molecule: C[C@H](NC(=O)OC(C)(C)C)C(=O)OC1O[C@@H]2O[C@@]3(C)CC[C@H]4[C@H](C)CC[C@@H]([C@H]1C)[C@@]24OO3 (stereo partly drawn)
Response: 41000 nM

Query: Same again, this time with C[C@H]1[C@H](N2CCSCC2)O[C@@H]2O[C@@]3(C)CC[C@H]4[C@H](C)CC[C@@H]1[C@@]24OO3 [ARTEMISIDE]
Response: 100 nM

Query: Same again, this time with "C[C@H]1[C@H](N2CCS(=O)(=O)CC2)O[C@@H]2O[C@@]3(C)CC[C@H]4[C@H](C)CC[C@@H]1[C@@]24OO3"
Response: 120 nM

---

System: Toxoplasma gondii
Experiment: Antiparasitic activity against Toxoplasma gondii RH infected in human HFF cells assessed as reduction in parasitic growth
Type: functional, organism-based
MEASURED_METRIC: pIC50
// field semantics: pIC50 = negative decimal log of concentration (mol/L)

Query: Dear colleague, I am looking for the recorded pIC50 of the following molecule: "N=C(N)N/N=C/c1c(Cl)cccc1Cl"
Response: 5.22
